RUN DESCRIPTION: physchem
PARTICULARS: d2o, pKa of pyridine-N functionality, 1H-NMR
QUANTITY NAME: pKa

>>> print(df.to_string())
                                   molecule  quantity_name  readout_number
0  CN1CCC[C@H]1c1cccnc1 [S(-)nicotine, reference compound]            pKa            3.75

====

RUN DESCRIPTION: physchem
PARTICULARS: d2o, pKa of pyrrolidino-N (N'-amino) functionality, 1H-NMR
QUANTITY NAME: pKa

In [3]: df
Out[3]:
                                   compound  readout_number
0  CN1CCC[C@H]1c1cccnc1 [S(-)nicotine, reference compound]             8.4
1  C=CC[n+]1cccc([C@@H]2CCCN2C)c1 [NANI, S-N-allylnicotiniumiodide]             6.4
